Run Description: yeast display, Sf9 membrane polyspecificity reagent, FACS + sequencing; frameworks hold sequencing errors
Parameter: polyreactivity (PSR sort gate)

Consider the reported polyreactivity (PSR sort gate) for these sequences:
QVQLVESGGGLVQAGGSLRLSCAASGSTFPRNDMGWYRQAPGKERELVAAISRGGSTNYADSVKGRFTISRDNAKNTVYLQMNSLKPEDTAVYYCAAQIIESAYGMDYWGQGTQVTVSS ... low polyreactivity
QVQLVASGGGLVQAGGSLRLSCAATGSIFYFYAMGWYRPAPWKERELVAAITDCGASTRYADSVKGRFTISRDNAKNTVYLQMNSLKPEDTAVYYCAAVRYHISYREYYWGQGTQVTESS ... high polyreactivity
QVQLVESGGGLVQAGGSLRLSCAASGFTFRYYAMGWSRQAPGKERELVARITSGGSTNYADSVKGRFTISRDNAKNTVYLQMNSLKPEDTAVYYCAASPYRYWRMYSWGQGTQVTVSS ... high polyreactivity
QVQLVESGGGLVQAGGSLRLSCAASGSTFNLYAMGWYRQAPGKERELVAAISDGDSSTYYADSVKGRFTISRDNAKNTVYLQMNSLKPEDTAVYYCAADFSVYTEEDDSWGQGTQVTVSS ... low polyreactivity
QVQLVESGGGLVQAGGSLRLSCAASGRIFYLYAMGWYRQAPGTEREFVASITVSGSSTYYADSVKGRFTISRDNAKNTVYLQMNSLKPEDTAVYYCNTDAVRSYVWWGTSLYDYWGQGTQVTVSS ... low polyreactivity

Request: Consider the sequence QVQLLESGGGLVQAGGSLRLSCAASGSIFGINAMGWYRQAPGKERELVAAISGSTSRTYYADSVKGRFTISRDNAKNTVYLQMNSLKPEDTAVYYCAVVGLRSVTRRSYYWGQGNQVTVSS . State its measured polyreactivity (PSR sort gate).
Result: high polyreactivity

Request: Consider the sequence QVQLVESGGGLVQAGGSLRLSCAASGRIFRSYAMGWYRQAPGKERELVAAISYSGGSTYYADSVKGRFTISRDNAKNTVYLQMNSLKPEDTAVYYCAALPGERKYIYYGYDYWGQGTQVTVSS . State its measured polyreactivity (PSR sort gate).
Result: high polyreactivity

Request: Consider the sequence QVQLEESGGGLVQAGGSLRLTCAASGSTFVRYVMGWYRQAPGKERELVAAISRRGGSTYYADSVKGRFTISRDNAKNTVYLEMNSLKPEDTAVYYCARTVGYRTLLESDSWGQGTQVTVSS . State its measured polyreactivity (PSR sort gate).
Result: high polyreactivity

Request: Consider the sequence QVHLVESGGGLVQAGGSLSLSCAASGSIFRYYAMGWYRQAPGKEREFVAAITRGGGRTYYADSVKGRFTISRDTAKHTVYLQLNSLKPEDTAVYSCAAGPPRTRYRNARFDYWGQGTQVTVSS . State its measured polyreactivity (PSR sort gate).
Result: high polyreactivity

Request: Consider the sequence QVQLVESGGGLVQAGGSLRLSCAASGRTFWFYTMGWYRKAPGKEREFVAAISSGGSTNYADSVKGRFTISRDNAKYSVYLQMNSLKPEDTALYYCNARFQVGQSEYAVWYYPKYDYWGQGTQVTVSS . State its measured polyreactivity (PSR sort gate).
Result: low polyreactivity

Request: Consider the sequence QVQLVESGGGLVQAGGSIRLSCAASGNTFRWYAMGWYRQAPGKEREFVAAISSSGGSTYYADSVKGRFTISRDNAKNTVYLQMNSLKPEDTAVYYCNAASVTRHVSFATDYEYWGQGTQVTVSS . State its measured polyreactivity (PSR sort gate).
Result: high polyreactivity
